Tested on: Nucleic Acid
Assay: Induction of supercoiled pDesR3 DNA cleavage after 2 to 12 hrs by agarose gel electrophoresis
Format: nucleic-acid assay
attribute_measured: EC50

input_smiles=CC[C@H](C)[C@H]1C(=O)O[C@H]2c3cc(C)cc(O)c3C3=C(C(=O)c4c(O[C@H]5C[C@@H](O)[C@@H](O)[C@H](C)O5)cccc4C3=O)N12 attribute_measured=EC50 endpoint_result="1.7 µM"
